# protocol: Pharmacokinetic analysis of SYN120 tablets, multiple dose once daily (Example 9)
# Format: in vivo, human
# condition description: both sexes, human, plasma and urine, oral, 100 mg, Day 14, 100 mg QD; arithmetic mean; read-out: 0-24 Clr
# Method: PK analysis in a multiple dose study was performed on 28 subjects (10 males and 18 females) on day 1 and on 27 subjects (10 males and 17 females) on day 14 who received SYN120 oral tablets. The dosing interval was once daily, approximately 40 minutes after a standard breakfast, for up to 21 days. The subjects were administered the same dose of SYN120 daily at one of the following doses: 100 mg; 300 mg; and 600 mg. […]
parameter: CL renal (mL/min)
Give a bare numeral; the unit mL/min is implied.

Request: Look at this molecule and give its reported CL renal. NC(=O)NC[C@@H]1CCCc2cc(S(=O)(=O)c3cccc(F)c3)ccc21 [SYN120]
Result: 1.33
